# TARGET DESC: UniProt:Q14833
# Sequence (Q14833 33-912): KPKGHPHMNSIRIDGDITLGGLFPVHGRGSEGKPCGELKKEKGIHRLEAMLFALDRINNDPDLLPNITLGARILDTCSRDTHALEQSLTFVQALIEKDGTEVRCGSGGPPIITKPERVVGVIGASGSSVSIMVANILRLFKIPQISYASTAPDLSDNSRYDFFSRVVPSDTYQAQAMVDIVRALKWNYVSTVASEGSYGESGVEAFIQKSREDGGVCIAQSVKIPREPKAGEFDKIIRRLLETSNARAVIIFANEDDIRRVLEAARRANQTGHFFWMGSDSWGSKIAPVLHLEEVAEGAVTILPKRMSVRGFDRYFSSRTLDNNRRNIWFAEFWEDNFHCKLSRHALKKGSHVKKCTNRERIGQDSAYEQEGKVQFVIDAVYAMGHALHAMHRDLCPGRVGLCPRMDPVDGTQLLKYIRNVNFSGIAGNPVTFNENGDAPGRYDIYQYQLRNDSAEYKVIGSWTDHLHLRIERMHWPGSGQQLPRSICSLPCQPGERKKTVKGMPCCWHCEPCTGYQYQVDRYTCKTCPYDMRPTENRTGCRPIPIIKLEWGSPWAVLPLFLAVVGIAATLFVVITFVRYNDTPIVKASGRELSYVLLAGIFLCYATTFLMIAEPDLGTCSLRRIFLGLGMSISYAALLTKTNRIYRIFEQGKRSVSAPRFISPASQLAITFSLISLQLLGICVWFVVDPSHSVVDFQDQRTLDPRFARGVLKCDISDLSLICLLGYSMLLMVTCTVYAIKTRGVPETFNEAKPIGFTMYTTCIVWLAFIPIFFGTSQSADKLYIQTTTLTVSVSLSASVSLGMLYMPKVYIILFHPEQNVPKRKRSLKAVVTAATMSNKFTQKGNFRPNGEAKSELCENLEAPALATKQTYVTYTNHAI
# PROCEDURE DETAILS: HEK-293 mGluR4 cells cAMP assay with EC20 L-glutamate (HTRF)
# TEST PARAMETERS: positive allosteric activity at EC20 L-glutamate, 10 μM forskolin, HEK293T mGluR4 cells, read-out: hrmGluR4/HEK293T-hmGluR4 (EC50)
pEC50: −log10 of the molar value.
METRIC NAME: pEC50

Give the measured pEC50 of Oc1ccc(-c2nc3ccccc3nc2-c2ccccc2)cc1 .
> 6.00

Next: Cc1cccc2nc(-c3ccccc3)c(-c3ccccc3)nc12
5.00 to 6.00

Lookup Fc1ccc(-c2nc3ccccc3nc2-c2cccc3[nH]ccc23)cc1F
5.00 to 6.00

Let us now turn to c1ccc(-c2nc3c(nc2-c2ccccc2)CCCC3)cc1
5.00 to 6.00

Similarly, Fc1ccc(-c2nc3ccccc3nc2-c2ccccc2)cc1F ?
5.00 to 6.00

Next molecule: c1ccc(-c2nc3ccccc3nc2-c2ccnc3ccccc23)cc1
> 6.00

What do we get for OC1CCN(c2nc3ccccc3nc2-c2ccccc2)CC1 ?
> 6.00

Try this molecule next: CC(=O)c1cccc2nc(-c3ccccc3)c(-c3ccccc3)nc12
5.00 to 6.00

And c1ccc(-c2nc3ccccc3nc2-c2cccc3cccnc23)cc1 ?
5.00 to 6.00

Try this molecule too: Fc1ccccc1-c1nc2ccccc2nc1-c1ccccc1F
5.00 to 6.00
